# Tested on: SF-268 CNS
# Test: NCI tumour cell line growth inhibition, 48 h
Observed property: TGI

Compound: CN(C)/C=C/c1nnnn1-c1ccc(I)cc1
TGI: 51 µM
--
Compound: O=C(OC(/C=C/c1ccccc1)P1(=O)N(Cc2ccccc2)[C@@H]2CCCC[C@H]2N1Cc1ccccc1)c1ccccc1 (stereo partly drawn)
TGI: > 100 µM

Field: next compound
Entry under review: `CC(C)c1nc2c(Cl)c3ncccc3cc2[nH]c1=O` . Reported TGI?
> 100 µM

---

# Tested on: SK-MEL-28 melanoma
# Test: NCI tumour cell line growth inhibition, 48 h
Exercise: for every item that follows, state its recorded TGI.
One number for each entry, in µM.

Compound: CCOC(=O)C#Cc1c(CC(=O)OCC)nnn1[C@H]1O[C@@H](CO)[C@@H]2OC(C)(C)O[C@@H]21
TGI / µM: 11.4
--
Compound: ClCc1ccc2ccc3ccc(CCl)nc3c2n1
TGI / µM: 4
--
Compound: COCCNC(=O)c1ccc(-c2nc3ccc4[nH]ncc4c3c3c2CCCC3)cc1
TGI / µM: 98.2
--
Compound: CC1=C(C(=O)Nc2ccc(F)c(Cl)c2)C(c2cccc(Oc3ccccc3)c2)NC(=O)N1 (stereo not given)
TGI / µM: 28.1
--
Compound: CC1CC(C)(O)CC(C(O)CC2CC(=O)NC(=O)C2)C1=O (stereo not given)
TGI / µM: 3.55

Answer for every listed entry: what is its TGI? The entries follow.
1. COc1cccc2c(=O)c3c(sc12)c(NCCN(C)C)nc1ccccc13
2. Nc1nc(Cl)cc(NCCCCCCCCCCCCNc2cc(Cl)nc(N)n2)n1
3. COc1cc(-c2oc(C=Nc3ccccc3)c([N+](=O)[O-])c2-c2ccc(O)c(OC)c2)ccc1O

[3.49, 30, 68.7]

// lookup TGI | system=SK-MEL-28 melanoma | key= `Oc1ccc(N=Nc2ccc(N=Nc3ccccc3)cc2)cc1`
3.64

---

# System: NCI-H23 lung
# Test: NCI tumour cell line growth inhibition, 48 h
Observed property: TGI

Compound: CC1=NN(C(=O)c2ccc(Cl)cc2)C(=O)/C1=C/c1ccc(O)cc1
TGI: > 100 µM
--
Compound: CN(C)/C=C/c1ccncc1
TGI: > 100 µM
--
Compound: CC(C)CCCC(C)[C@H]1CC[C@H]2[C@@H]3CC[C@H]4C[C@@H](CCC=C(c5cc(Cl)c(O)c(C(=O)O)c5)c5cc(Cl)c(O)c(C(=O)O)c5)CC[C@]4(C)[C@H]3CC[C@]12C (some centres undefined) (tested in a mixture with another compound)
TGI: > 50 µM
--
Compound: CC(C)(c1ccc(OC#N)cc1)c1ccc(OC#N)cc1
TGI: > 100 µM
--
Compound: CCCCCCCCCCCC[n+]1ccc(C(N)=O)cc1
TGI: 14 µM

// for each compound below, give its TGI
1. CC1=C(C(=O)Nc2ccc(F)c(Cl)c2)C(c2cccc(Oc3ccccc3)c2)NC(=O)N1 (centres undefined)
2. N#CC1=C(N)Oc2c(sc3c(F)cccc23)C1c1ccc(F)cc1 (centres undefined)

1. 28.8 µM
2. 14.8 µM

State recorded TGI for all listed compounds.
1. COc1cc(C(=O)CC2(O)C(=O)Nc3c(Cl)cc(Cl)cc32)ccc1O (centres undefined)
2. Cc1ccc(CCCCCOc2ccc(C3=NCCO3)cc2)s1

1: > 100 µM; 2: > 100 µM

---

# Test system: OVCAR-3 ovarian
# Test: NCI tumour cell line growth inhibition, 48 h
Could you please report measured GI50 for the items listed next?

Completed entries (count: 9):
Compound: N#Cc1nc2cc(F)c(F)cc2nc1-c1ccc(Cl)cc1
GI50: 2240 nM
--
Compound: CS(=O)(=O)Nc1cc(-c2ccc3ncnc(Nc4ccc5c(cnn5Cc5ccccc5F)c4)c3c2)cnc1Cl
GI50: 795 nM
--
Compound: NCCCCN(Cc1nc2ccccc2[nH]1)[C@H]1CCCc2cccnc21
GI50: 15300 nM
--
Compound: CC(C)C[C@@H]1NC(=O)[C@@H]2CCCN2C(=O)[C@@H]2CCCN2C(=O)[C@H](CC(C)C)NC(=O)[C@H](CO)NC(=O)[C@H](CCCCN)NC(=O)[C@H]([C@H](C)O)NC(=O)[C@@H]2CCCC[C@@H](NC1=O)C(=O)N[C@@H](Cc1ccccc1)C(=O)N1CCC[C@H]1C(=O)N[C@@H](CC(=O)O)C(=O)NCC(=O)N[C@@H](CCCN=C(N)N)C(=O)N2
GI50: > 50000 nM
--
Compound: COc1cc(/C=C/C(=O)c2c(C)n([O-])c3ccc(Cl)cc3[n+]2=O)cc(OC)c1OC
GI50: > 100000 nM
--
Compound: CC1=C(C(=O)Nc2ccc(F)c(Cl)c2)C(c2cccc(Oc3ccccc3)c2)NC(=O)N1 (stereo not given)
GI50: 20700 nM
--
Compound: C=C1C(=O)O[C@H]2[C@H]1CC/C(CNS(=O)(=O)c1cccc3ccccc13)=C\CC[C@@]1(C)O[C@@H]21
GI50: 1160 nM
--
Compound: O=C(/C=C/c1ccc(C(F)(F)F)cc1)c1ccc(Nc2nc(NCCO)nc(N3CCOCC3)n2)cc1
GI50: 1960 nM
--
Compound: COc1ccc2c(c1)OC(N)=C(C#N)C2c1ccc(F)cc1 (stereo not given)
GI50: 829 nM

Now let's try a different one.
I am curious: what GI50 value has been reported for CSC1C(=O)c2ccccc2/C(=N/Nc2nc3ccccc3s2)C1C (stereo not given) ?
7980 nM

---

# System: SK-MEL-28 melanoma
# Test: NCI tumour cell line growth inhibition, 48 h
So I've got a bunch of compounds here, and I need their TGI values.

Use the examples below as a reference point.
Compound: [C-]#[N+]C1(C(=O)OCC)CC1
System name: SK-MEL-28 melanoma
TGI: > 100 µM

Compound: O=C1c2ccccc2-c2c1c(-c1ccccc1)c1n2C2(C(=O)c3ccccc3C2=O)C2C(=O)N(c3ccccc3)C(=O)C12 (stereo not given)
System name: SK-MEL-28 melanoma
TGI: > 100 µM

Compound: C=CC(=O)Nc1cccc(C)c1Nc1ncc2cc(-c3c(Cl)c(OC)cc(OC)c3Cl)ccc2n1
System name: SK-MEL-28 melanoma
TGI: 55.6 µM

Please give TGI, item by item, for the list that follows.
1. CCCCCCCCCC1CC(=O)NCC(=O)NC(C(C)C)C(=O)NC(CC(C)C)C(=O)NC(C)C(=O)NC(C(C)C)C(=O)O1 (stereo not given)
2. OC(CNc1ccnc2cc(Cl)ccc12)CNC1CCCCC1 (stereo not given)
3. CC(C)(c1ccc(OC#N)cc1)c1ccc(OC#N)cc1
4. O=C(/C=C1/NC(=O)CS1)Nc1ccccc1
5. O=C(CC(C(=O)c1cccs1)c1ccsc1)c1ccco1 (stereo not given)
6. Cc1ccc(S(=O)(=O)Nc2nc3ccccc3nc2Nc2ccc3nsnc3c2)cc1

1. 36.6 µM
2. 3.31 µM
3. > 100 µM
4. > 100 µM
5. > 100 µM
6. > 100 µM

Give TGI (SK-MEL-28 melanoma) of the following compound: `NS(=O)(=O)c1nnc(/N=C(/CCC(=O)O)C(=O)O)s1`
> 100 µM

---

Consider the following molecules; for each one, report its GI50.
# Tested on: NCI/ADR-RES ovarian
# Test: NCI tumour cell line growth inhibition, 48 h

Molecule: Oc1ccc(N=Nc2ccc(N=Nc3ccccc3)cc2)cc1
GI50: 3.67 µM
//
Molecule: O=C(/C=C/c1ccc(C(F)(F)F)cc1)c1ccc(Nc2nc(NCCO)nc(N3CCOCC3)n2)cc1
GI50: 2.87 µM
//
Molecule: O=C1/C(=C/c2ccc(Cl)cc2)COc2ccc(O)c(O)c21
GI50: 1.6 µM
//
Molecule: CS(=O)(=O)Nc1cc(-c2ccc3ncnc(Nc4ccc5c(cnn5Cc5ccccc5F)c4)c3c2)cnc1Cl
GI50: 8.32 µM
//
Molecule: CCCN(CCC)C(=O)[C@H](CC)[C@@H]1CC[C@@H](C)[C@@H]([C@H](C)[C@@H](O)[C@@H](C)C(=O)[C@H](CC)C2O[C@]3(C=C[C@@H](O)[C@]4(CC[C@@](C)([C@H]5CC[C@](O)(CC)[C@H](C)O5)O4)O3)[C@H](C)C[C@@H]2C)O1 (stereo partly drawn)
GI50: 2.93 µM

Batch of 3 molecules: report GI50 for each.
1. CN(C)c1ccc(O)c2c1C[C@H]1C[C@H]3[C@H](N(C)C)C(=O)C(C(N)=O)=C(O)[C@@]3(O)C(=O)C1=C2O
2. O=Cc1ccc(O)c2ncccc12
3. COc1cc(/C=C/C(=O)c2c(C)n([O-])c3ccc(Cl)cc3[n+]2=O)cc(OC)c1OC

["11.6 µM", "2.2 µM", "90.9 µM"]

---

# Tested on: IGROV1 ovarian
# Test: NCI tumour cell line growth inhibition, 48 h
Observed property: TGI

Example results:
Molecule: CC(C)(C)N(Cc1ccoc1)C(=O)/C=C\S(=O)c1ccccc1 (centres undefined)
System name: IGROV1 ovarian
Observed property: TGI
Observed: 32.9 µM

Molecule: Cc1cc(N)ccc1C=O
System name: IGROV1 ovarian
Observed property: TGI
Observed: > 100 µM

Molecule: COc1ccc2c(c1)CCCN1Cc3ccccc3CC21 (centres undefined)
System name: IGROV1 ovarian
Observed property: TGI
Observed: > 100 µM

Go through the items and report each one's TGI.
1. CCCCCCCCCC1CC(=O)NCC(=O)NC(C(C)C)C(=O)NC(CC(C)C)C(=O)NC(C)C(=O)NC(C(C)C)C(=O)O1 (centres undefined)
2. Nc1nc(Cl)cc(NCCCCCCCCCCCCNc2cc(Cl)nc(N)n2)n1
3. COC(=O)c1cc2oc(/C=C3\SC(=S)N(NC(C)=O)C3=O)cc2n1Cc1ccccc1

1. > 100 µM
2. > 100 µM
3. > 50 µM

I have 3 molecules here; please give me TGI for each one.
1. N#CC(NNC(=O)c1ccccc1O)c1ccccc1 (centres undefined)
2. CC1CC(C)(O)CC(C(O)CC2CC(=O)NC(=O)C2)C1=O (centres undefined)
3. COc1ccc(/C=C/C(=O)c2cc3c(N)c(C(=O)Nc4ccccc4)sc3nc2C)cc1

1: > 100 µM; 2: 1.55 µM; 3: > 50 µM
